TEST DESCRIPTION: drug combination growth inhibition, ovarian cancer – cell-based, oncology-focused library, rucaparib conditional, profiling panel (AID 1508598)
CONDITION LABEL: patient-derived ovarian cancer cells, CellTiter-Glo viability, 144 h; at 0.00488 µM; OCI-P5x cells; without rucaparib
The source made the active and inactive calls.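 How the source made its calls: active means normalized viability below 100% at a tested concentration; inactive means the rest.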
Allowed answers: t for active, f for inactive

Fill in: this test's call for COc1ccc2cc(-c3nc(-c4ccc(S(C)=O)cc4)[nH]c3-c3ccncc3)ccc2c1 (stereo not given) is ___
t

How did this test come out for Cn1cnc2c(F)c(Nc3ccc(Br)cc3Cl)c(C(=O)NOCCO)cc21 ?
t

What did this assay record as the result for CCOc1cc(N2CCC(O)CC2)ccc1Nc1ncc2c(n1)N(C)c1ccccc1C(=O)N2C ?
f

Call for entry Cc1cccc(-c2nn3c(c2-c2ccnc4ccc(C(N)=O)cc24)CCC3)n1 :
f

What did this assay record as the result for CNC(=O)c1ccc(C)c(-n2c(C)cc(OCc3ccc(F)cc3F)c(Br)c2=O)c1 ?
f

Name the outcome recorded for Nc1nc(Nc2ccc(S(N)(=O)=O)cc2)nn1C(=O)c1c(F)cccc1F in the assay.
t

Could you check what this test reported for NC1(c2ccc(-c3nc4ccn5c(=O)[nH]nc5c4cc3-c3ccccc3)cc2)CCC1 ?
f

Dear colleague, could you share the recorded outcome for Cc1cc(CS(=O)(=O)c2ccccc2)cc(OCc2ccc(CN3CCC[C@@H]3CO)cc2)c1 when you have a moment?
f

Would you mind telling me which call this test gave NC(=O)c1ccc(I)c([N+](=O)[O-])c1 ?
f

Hi team, can someone confirm the assay call for COC(=O)c1ccc2c(C(=Nc3ccc(N(C)C(=O)CN4CCN(C)CC4)cc3)c3ccccc3)c(O)[nH]c2c1 ?
f

====

TEST DESCRIPTION: growth inhibition, single agents and combos, UWB1.289, cell-based, BGB or cisplatin combos, synergistic combos for chromothripsis tumors (AID 1671456);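 further: cells exposed to compound for four days; 0% = vehicle DMSO and 100% = killing by high DMSO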
CONDITION LABEL: UWB1.289 ovarian carcinoma cells, measured here: inhibition with BGB combination, at 0.05 µM, stronger effect = higher value
ENDPOINT NAME: inhibition (%)
Report the value in % with no unit label.

Could you tell me which inhibition is on file for C=C1[C@H](CO)[C@@H](O)C[C@@H]1n1cnc2c(=O)[nH]c(N)nc21 ?
1.38

Look up inhibition: CO[C@H]1/C=C/O[C@@]2(C)Oc3c(C)c(O)c4c(O)c(c(/C=N\N5CCN(C6CCCC6)CC5)c(O)c4c3C2=O)NC(=O)/C(C)=C\C=C\[C@H](C)[C@H](O)[C@@H](C)[C@@H](O)[C@@H](C)[C@H](OC(C)=O)[C@@H]1C
-17.7

Given NC(=O)c1nc(F)c[nH]c1=O , state its recorded inhibition.
6.54

Requested field: inhibition. Item: COc1cc2ncnc(-n3nc(-c4ccccn4)nc3N)c2cc1OC
-29.1

====

TEST DESCRIPTION: viability loss with induced miR-34 in A549 – imaging, A549 dox-inducible miR-34, nuclei and caspase counts, primary screen (AID 1347080)
CONDITION LABEL: A549 miR-34 inducible, Hoechst nuclei count, 48 h; measured here: total cells with miR-34 induction; stronger effect = lower value
Give measured cell count for each item. Keep answers brief.
// response body must contain only the number

Give the measured cell count of COc1cccc2cc(-c3nc(C4CCC(C(=O)O)CC4)n4ncnc(N)c34)[nH]c12 (stereo not given) .
3250

Sample C#CCOc1ccccc1CCCCCC(=O)O — what was its cell count?
5930

Endpoint output: cell count of CC1(C)C(=O)N(CCN2CCC(C(=O)c3ccc(F)cc3)CC2)c2ccccc21 . Value?
7420

// returns reported cell count for input COc1ccc2c(Oc3ccc(NC(=O)c4c(C)n(CC(C)(C)O)n(-c5ccccc5)c4=O)nc3)ccnc2c1
7640

// lookup cell count for CN(C)C(=O)CCSC(SCCC(=O)O)c1cccc(/C=C/c2ccc3ccc(Cl)cc3n2)c1 (stereo not given)
5360

Name the recorded cell count for FC(F)(F)c1ccc(/C=C/c2cc(Cl)cc(Cl)c2)cc1 .
5620

cell count for c1ccc(C(O[C@@H]2CCCN(CCc3ccc4c(c3)OCO4)C2)c2ccccc2)cc1 ?
8350

Recorded cell count of O=C(NCc1ccncc1)C12CC3CC(C1)CC(c1ccc(Cl)cc1)(C3)C2 , please.
4010

Any idea what cell count was measured for NC(C(=O)O)c1ccc(C(=O)O)c(O)c1 (stereo not given) ?
9030

May I ask what cell count has been recorded for CCCCC[C@H](O)/C=C/[C@H]1C2COC(C2)[C@@H]1C/C=C/CCCC(=O)O (stereo not given in full) ?
5790

====

TARGET UNDER TEST: Mitogen-activated protein kinase 7 (Homo sapiens)
TEST DESCRIPTION: Gal4-ERK5 driven luciferase induction – cell-based, HTS, primary screen (AID 1508626);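 further: luciferase driven by Gal4-ERK5 fusion binding five Gal4 sites before minimal TATA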
CONDITION LABEL: HeLa Gal4-ERK5 transactivation, 18 h, at 5 µM, stronger effect = higher value
Active and inactive are the calls of the source.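 How the source made its calls: active means luciferase signal above three times the same-plate solvent-only control wells; inactive means the rest.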
Record form. Attribute: luciferase signal. Fill in for each entry.

Using the record for NC(=O)c1cc[n+](CC2=C(C(=O)O)N3C(=O)[C@@H](NC(=O)[C@@H](c4ccccc4)S(=O)(=O)[O-])[C@H]3SC2)cc1 , report its luciferase signal.
36 AU (inactive)

# get_value(readout='luciferase signal', item= CC[C@H](C)[C@H]1O[C@]2(CC[C@@H]1C)C[C@@H]1C[C@@H](C/C=C(\C)[C@@H](O[C@H]3C[C@H](OC)[C@@H](O[C@H]4C[C@H](OC)[C@@H](O)[C@H](C)O4)[C@H](C)O3)[C@@H](C)/C=C/C=C3\CO[C@@H]4[C@H](O)C(C)=C[C@@H](C(=O)O1)[C@]34O)O2 )
44 AU (inactive)

Which luciferase signal value is on record for CCOC(=O)C1=C[C@@H](OC(CC)CC)[C@H](NC(C)=O)[C@@H](N)C1 ?
56 AU (inactive)

Query (compound): CC(=O)O[C@H]1C[C@@H]2CC[C@@H]3[C@H](CC[C@@]4(C)[C@H]3C[C@H]([N+]3(C)CCCCC3)[C@@H]4OC(C)=O)[C@@]2(C)C[C@@H]1[N+]1(C)CCCCC1 ; field requested: luciferase signal
40 AU (inactive)

Fill in: luciferase signal of N[C@@H](Cn1ccc(=O)c(O)c1)C(=O)O is ___
68 AU (inactive)

Entry under review: CCCCCCCCCCCCCCCC(=O)OC[C@@H](NC(=O)C(Cl)Cl)[C@H](O)c1ccc([N+](=O)[O-])cc1 . Reported luciferase signal?
64 AU (inactive)

Dear colleague, I am looking for the recorded luciferase signal of the following compound: CC[C@H](CC[C@@H](C)[C@H]1CC[C@H]2[C@@H]3CC=C4C[C@@H](O)CC[C@]4(C)[C@H]3CC[C@]12C)C(C)C
32 AU (inactive)

Could you tell me which luciferase signal is on file for CC(=O)O[C@@H]1C[C@H]2C(C)(C)C(=O)C=C[C@]2(C)[C@H]2CC[C@@]3(C)[C@H](c4ccoc4)OC(=O)[C@H]4O[C@]43[C@@]21C ?
96 AU (inactive)

So what's the measured luciferase signal for this one? C[C@H]1[C@H](C)CC[C@]2(C(=O)O)CC[C@]3(C)C(=CC[C@@H]4[C@@]5(C)C[C@@H](O)[C@H](O)[C@@](C)(CO)[C@@H]5CC[C@]43C)[C@H]12
36 AU (inactive)

Which luciferase signal value belongs to CC[C@H](/C=C/[C@@H](C)[C@H]1CC[C@H]2[C@@H]3CC=C4C[C@@H](O)CC[C@]4(C)[C@H]3CC[C@]12C)C(C)C ?
52 AU (inactive)

# input compound: NC[C@@H]1O[C@H](O[C@H]2[C@@H](O)[C@H](O[C@@H]3[C@@H](O)[C@H](N)C[C@H](N)[C@H]3O[C@H]3O[C@H](CN)[C@@H](O)[C@H](O)[C@H]3N)O[C@@H]2CO)[C@H](N)[C@@H](O)[C@@H]1O ; wanted: its luciferase signal
28 AU (inactive)

I have this compound here, CO[C@H]1/C=C/O[C@@]2(C)Oc3c(C)c(O)c4c(O)c(c(/C=N/N5CCN(C)CC5)c(O)c4c3C2=O)NC(=O)/C(C)=C\C=C\[C@H](C)[C@H](O)[C@@H](C)[C@@H](O)[C@@H](C)[C@H](OC(C)=O)[C@@H]1C , and I need its recorded luciferase signal.
44 AU (inactive)

Dear colleague, I am looking for the recorded luciferase signal of the following compound: CO[C@H]1/C=C/O[C@@]2(C)Oc3c(C)c(O)c4c(O)c(c5c(nc6cc(C)ccn65)c4c3C2=O)NC(=O)/C(C)=C\C=C\[C@H](C)[C@H](O)[C@@H](C)[C@@H](O)[C@@H](C)[C@H](OC(C)=O)[C@@H]1C
32 AU (inactive)

For C=C1C(=O)O[C@@H]2[C@H]3O[C@]3(C)CC/C=C(\C)CC[C@@H]12 , what is its reported luciferase signal?
92 AU (inactive)
